Where these numbers come from: patent US20250129064A1

test: Serial tail vein bleed PK study of 2-Br-LSD and 2-Br-LSD prodrugs in SD rats; 2-Br-LSD measured in plasma; conditions: male, Sprague-Dawley, rat, plasma, po, 4 mg/kg, AUC0-inf, 2-Br-LSD 4 mg/kg oral, male SD rats, analyte 2-Br-LSD in plasma, mean of 3
property name: AUC0-inf (ng·h/mL)
Give a bare numeral; the unit ng·h/mL is implied.

Quick one: give measured AUC0-inf for CCN(CC)C(=O)[C@@H]1C=C2c3cccc4[nH]c(Br)c(c34)C[C@H]2N(C)C1 [Example 2-Br-LSD]
1730

---

assay: Serial tail vein bleed PK study of 2-Br-LSD and 2-Br-LSD prodrugs in SD rats; 2-Br-LSD measured in plasma; conditions: male, Sprague-Dawley, rat, plasma, iv, 1 mg/kg, Cmax, 2-Br-LSD 1 mg/kg IV, male SD rat, analyte 2-Br-LSD in plasma, individual animal
property name: Cmax

Quick one: give measured Cmax for CCN(CC)C(=O)[C@@H]1C=C2c3cccc4[nH]c(Br)c(c34)C[C@H]2N(C)C1 [Example 2-Br-LSD]
577 ng/mL

---

experiment: Serial tail vein bleed PK study of 2-Br-LSD and 2-Br-LSD prodrugs in SD rats; 2-Br-LSD measured in plasma; details: male, Sprague-Dawley, rat, plasma, iv, 1 mg/kg, Cmax, 2-Br-LSD 1 mg/kg IV, male SD rats, analyte 2-Br-LSD in plasma, mean of 3
property name: Cmax (ng/mL)
Give a bare numeral; the unit ng/mL is implied.

Quick one: give measured Cmax for CCN(CC)C(=O)[C@@H]1C=C2c3cccc4[nH]c(Br)c(c34)C[C@H]2N(C)C1
578

---

experiment: Serial tail vein bleed PK study of 2-Br-LSD and 2-Br-LSD prodrugs in SD rats; 2-Br-LSD measured in plasma; conditions: male, Sprague-Dawley, rat, plasma, iv, 1 mg/kg, AUC0-inf, 2-Br-LSD 1 mg/kg IV, male SD rats, analyte 2-Br-LSD in plasma, mean of 3
property name: AUC0-inf (ng·h/mL)
Give a bare numeral; the unit ng·h/mL is implied.

Quick one: give measured AUC0-inf for CCN(CC)C(=O)[C@@H]1C=C2c3cccc4[nH]c(Br)c(c34)C[C@H]2N(C)C1 [Example 2-Br-LSD]
286

---

experiment: Serial tail vein bleed PK study of 2-Br-LSD and 2-Br-LSD prodrugs in SD rats; 2-Br-LSD measured in plasma; settings: male, Sprague-Dawley, rat, plasma, po, 4 mg/kg, Cmax, 2-Br-LSD 4 mg/kg oral, male SD rats, analyte 2-Br-LSD in plasma, mean of 3
property name: Cmax

Quick one: give measured Cmax for CCN(CC)C(=O)[C@@H]1C=C2c3cccc4[nH]c(Br)c(c34)C[C@H]2N(C)C1
304 ng/mL

---

test: Serial tail vein bleed PK study of 2-Br-LSD and 2-Br-LSD prodrugs in SD rats; 2-Br-LSD measured in plasma; details: male, Sprague-Dawley, rat, plasma, iv, 1 mg/kg, T½, 2-Br-LSD 1 mg/kg IV, male SD rat, analyte 2-Br-LSD in plasma, individual animal
property name: half-life (min)
Give a bare numeral; the unit min is implied.

Quick one: give measured half-life for CCN(CC)C(=O)[C@@H]1C=C2c3cccc4[nH]c(Br)c(c34)C[C@H]2N(C)C1
44.3

---

test: Serial tail vein bleed PK study of 2-Br-LSD and 2-Br-LSD prodrugs in SD rats; 2-Br-LSD measured in plasma; details: male, Sprague-Dawley, rat, plasma, po, 4 mg/kg, Cmax, 2-Br-LSD 4 mg/kg oral, male SD rat, analyte 2-Br-LSD in plasma, individual animal
property name: Cmax

Quick one: give measured Cmax for CCN(CC)C(=O)[C@@H]1C=C2c3cccc4[nH]c(Br)c(c34)C[C@H]2N(C)C1 [Example 2-Br-LSD]
338 ng/mL

---

test: Serial tail vein bleed PK study of 2-Br-LSD and 2-Br-LSD prodrugs in SD rats; 2-Br-LSD measured in plasma; conditions: male, Sprague-Dawley, rat, plasma, iv, 1 mg/kg, AUC0-last, 2-Br-LSD 1 mg/kg IV, male SD rats, analyte 2-Br-LSD in plasma, mean of 3
property name: AUC(0-t) (ng·h/mL)
Give a bare numeral; the unit ng·h/mL is implied.

Quick one: give measured AUC(0-t) for CCN(CC)C(=O)[C@@H]1C=C2c3cccc4[nH]c(Br)c(c34)C[C@H]2N(C)C1
283

---

assay: Serial tail vein bleed PK study of 2-Br-LSD and 2-Br-LSD prodrugs in SD rats; 2-Br-LSD measured in plasma; conditions: male, Sprague-Dawley, rat, plasma, po, 4 mg/kg, AUC0-last, 2-Br-LSD 4 mg/kg oral, male SD rat, analyte 2-Br-LSD in plasma, individual animal
property name: AUC(0-t) (ng·h/mL)
Give a bare numeral; the unit ng·h/mL is implied.

Quick one: give measured AUC(0-t) for CCN(CC)C(=O)[C@@H]1C=C2c3cccc4[nH]c(Br)c(c34)C[C@H]2N(C)C1
1350

---

assay: Serial tail vein bleed PK study of 2-Br-LSD and 2-Br-LSD prodrugs in SD rats; 2-Br-LSD measured in plasma; settings: male, Sprague-Dawley, rat, plasma, po, 4 mg/kg, AUC0-inf, 2-Br-LSD 4 mg/kg oral, male SD rat, analyte 2-Br-LSD in plasma, individual animal
property name: AUC0-inf

Quick one: give measured AUC0-inf for CCN(CC)C(=O)[C@@H]1C=C2c3cccc4[nH]c(Br)c(c34)C[C@H]2N(C)C1 [Example 2-Br-LSD]
1.78 µg·h/mL

---

test: Serial tail vein bleed PK study of 2-Br-LSD and 2-Br-LSD prodrugs in SD rats; 2-Br-LSD measured in plasma; details: male, Sprague-Dawley, rat, plasma, po, 4 mg/kg, T½, 2-Br-LSD 4 mg/kg oral, male SD rat, analyte 2-Br-LSD in plasma, individual animal
property name: half-life (h)
Give a bare numeral; the unit h is implied.

Quick one: give measured half-life for CCN(CC)C(=O)[C@@H]1C=C2c3cccc4[nH]c(Br)c(c34)C[C@H]2N(C)C1
3.6
